Where do these numbers come from? They come from ChEMBL document CHEMBL1201862.

- Tested on: DMS-273
- test: NCI tumour cell line growth inhibition, 48 h
Calls of active or inactive are those of the source. Rule as the data show it: active = GI50 up to about 1.1 µM and inactive = higher.
Labels: 1.0 (active), 0.0 (inactive)

{"columns": ["compound", "assigned-category"],
 "data": [
  ["CCCCCCCCCCCCCCCCOC(=O)c1cc(O)cc(C(=O)OCCCCCCCCCCCCCCCC)c1", 0.0],
  ["CCCCCN(CCCCC)C(=O)[C@H](CCC(=O)O)NC(=O)c1cc2ccccc2[nH]1", 0.0],
  ["CCOc1ccc(/N=C/c2c3ccccc3nc3ccccc23)cc1", 0.0],
  ["CC12C=C[C@]3(CC[C@@H]4[C@@](C)(CO)CCC[C@]4(C)C3CC1)C2 (some centres undefined)", 0.0],
  ["C[C@]12CC[C@H](OC(=O)Cc3ccc(N(CCCl)CCCl)cc3)CC1CC[C@@H]1C2CC[C@]2(C)NC(=O)CCC12 (some centres undefined)", 0.0],
  ["CC(C)(CN1CCCCC1)C(=O)/C=C/c1ccc(Br)cc1", 0.0],
  ["COc1ccc(C(=O)C#Cc2cnc(O)nc2O)cc1", 0.0],
  ["N#Cc1sc2nc3c(c(-c4ccccc4)c2c1N)CCCC3", 0.0],
  ["CCCc1nc(NC#N)nc(C(=O)Nc2ccccc2)c1CC", 0.0],
  ["CCCCOC(=O)N[C@H]1CCc2cc(OC)c(OC)c(OC)c2-c2ccc(SC)c(=O)cc21", 1.0],
  ["Cc1cc(/C=C/c2cc[n+](C)c3ccccc23)c(O)c2ncccc12", 1.0],
  ["Nc1cc2c(C3OC(CO)C(O)C3O)n[nH]c2c(=S)[nH]1 (centres undefined)", 0.0],
  ["Cc1c(/N=C\\c2ccc(N(CCC#N)CCC#N)cc2)c(=O)n(-c2ccccc2)n1C", 0.0],
  ["COc1ccc(CCc2cc(OC)cc(OC)c2)cc1", 0.0],
  ["Cc1cc(C)c2[s+]snc2c1", 0.0],
  ["O=C1CN(c2ccccc2)C(=O)C1C(=O)Nc1ccc(Cl)c(Cl)c1 (centres undefined)", 0.0],
  ["C#CCOCn1cnc2c(S)ncnc21", 0.0],
  ["COC(=O)[C@@H](C)[C@H]1CC[C@@](C)(CCC2=C(C)CC3C=C(C)CCC3C2(C)C)OO1 (some centres undefined)", 0.0],
  ["CCOc1ccc(NC(=O)CCc2nnc(SC)o2)cc1", 0.0],
  ["Cn1c2c(c3ccccc31)CCN(CCCCN1CCCCC1)C2=O", 0.0],
  ["C1COCCSC2=C(SCCO1)SC(=C1SC3=C(SCCOCCOCCS3)S1)S2", 0.0],
  ["CC(=O)O[C@H]1C(=O)[C@@]2(C)C(C(OC(=O)c3ccccc3)C3[C@@H](O)C(OC(=O)[C@@H](O)[C@H](NC(=O)c4ccccc4)c4ccc(C(F)(F)F)cc4)C(C)=C1C3(C)C)[C@]1(OC(C)=O)CO[C@@H]1C[C@@H]2O (some centres undefined)", 0.0],
  ["O=C(/C=C/c1ccccc1Cl)c1cccc2ccccc12", 0.0],
  ["C=C(C)[C@H]1Cc2c(ccc3c2O[C@@H]2COc4cc(OC)c(OC)cc4[C@@H]2C3=O)O1", 1.0]
]}

* * *

- Test system: NCI-H23
- test: NCI tumour cell line growth inhibition, 48 h
The source made the active and inactive calls. Rule as the data show it: active = GI50 up to about 1.1 µM and inactive = higher.
outcome-measure: GI50

{"columns": ["structure-string", "outcome-measure", "recorded-result"],
 "data": [
  ["COc1ccc(/C(C)=C2\\CCCN(Cc3ccccc3)C2)cc1", "GI50", "25.8 µM (inactive)"],
  ["CCOC(=O)C(=Cc1ccccc1Cl)C(=O)OCC", "GI50", "1.66 µM (inactive)"],
  ["CCOC(=O)C(Cc1ccc2c(c1)CCC2)Cc1ccc2c(c1)CCC2", "GI50", "69 µM (inactive)"],
  ["CO[C@@H](c1ccccc1)[C@H](O)[C@@](O)(c1ccccc1)P(=O)(OC)OC", "GI50", "> 100 µM (inactive)"],
  ["NC(=O)N/N=C(/Cc1nc2ccc(C(=O)c3ccccc3)cc2nc1O)C(=O)Nc1ccc(C(F)(F)F)cc1[N+](=O)[O-]", "GI50", "84.7 µM (inactive)"]
]}

* * *

- Test system: MOLT-4
- test: NCI tumour cell line growth inhibition, 48 h
The source made the active and inactive calls. No stated cut-off is given here; in the data, active = GI50 up to about 1.1 µM and inactive = higher.

{"columns": ["compound", "GI50"],
 "data": [
  ["CNC(=S)NN=C1NCCCN1", "> 100 µM (inactive)"],
  ["Cc1c(Cl)cccc1NC(=O)/C=C/c1ccccc1", "> 100 µM (inactive)"],
  ["O=C(NNC(=S)NCc1ccccc1)C12CC3CC(CC(C3)C1)C2", "19.1 µM (inactive)"],
  ["CCOC(=O)C(SCCO)C(C(=O)OCC)n1cc(C)c(=O)[nH]c1=O (centres undefined)", "4.81 µM (inactive)"],
  ["COC(=O)CCC(C)C1CCC2C3C(C[C@H](OC(C)=O)[C@]12C)[C@@]1(C)CCC2(C[C@H]1C[C@H]3OC(C)=O)OOC1(CC[C@]3(C)C4C[C@H](OC(C)=O)[C@]5(C)C(C(C)CCC(=O)OC)CCC5C4[C@H](OC(C)=O)C[C@@H]3C1)OO2 (some centres undefined)", "48.4 µM (inactive)"],
  ["Cc1ccnc(NC(=S)Nc2ccc([N+](=O)[O-])cc2)c1", "> 100 µM (inactive)"],
  ["Cc1ccc([N+](=O)[O-])cc1S(=O)(=O)Nc1ccc(C2=NNC(c3cccs3)C2)cc1 (centres undefined)", "13.7 µM (inactive)"],
  ["CC(=O)c1sc(Nc2ccc(Cl)c(Cl)c2)nc1C", "14.8 µM (inactive)"],
  ["CCOC(=O)c1sc2c(c1OC(=O)c1cc(OC)c(OC)c(OC)c1)c(=O)n(-c1ccccc1)c(=S)n2-c1ccccc1", "28.4 µM (inactive)"]
]}

* * *

- System: RXF 393
- test: NCI tumour cell line growth inhibition, 48 h
Calls of active or inactive are those of the source. No stated cut-off is given here; in the data, active = GI50 up to about 1.1 µM and inactive = higher.
outcome-measure: GI50

{"columns": ["compound", "outcome-measure", "recorded-result"],
 "data": [
  ["CCOC(=O)c1nc2cc(C(F)(F)F)ccc2nc1Oc1ccc(F)cc1", "GI50", "54 µM (inactive)"],
  ["COc1ccc(NC(=O)/C(Cc2nc3ccccc3nc2O)=N\\O)c(OC)c1", "GI50", "> 100 µM (inactive)"],
  ["NS(=O)(=O)c1ccc(NC(=S)NC=C2C(=O)c3ccccc3C2=O)cc1", "GI50", "43.6 µM (inactive)"],
  ["O=C(/C=C/c1ccccc1Cl)c1cccc2ccccc12", "GI50", "14 µM (inactive)"],
  ["C=CCCCCCCCCCCCC1CCC(CC)N1 (configuration not stated)", "GI50", "4.86 µM (inactive)"],
  ["Nc1cc2nc(O)c(O)nc2cc1N", "GI50", "> 100 µM (inactive)"],
  ["CCOC(=O)c1c(N2CCOCC2)[nH]c(=O)c(C(c2ccco2)c2c(O)c(C(=O)OCC)c(N3CCOCC3)[nH]c2=O)c1O", "GI50", "> 100 µM (inactive)"],
  ["CC1CC[C@@]2(OC1)OC1C[C@H]3[C@@H]4CCC5CC(O)CC[C@]5(C)[C@H]4C/C(=N\\N(C)C)[C@]3(C)C1[C@@H]2C (some centres not stated)", "GI50", "16.3 µM (inactive)"],
  ["CCOC(=O)C(=Cc1ccccc1Cl)C(=O)OCC", "GI50", "1.61 µM (inactive)"],
  ["Fc1c(F)c(F)c(CSc2nc3ccccc3[nH]2)c(F)c1F", "GI50", "> 100 µM (inactive)"],
  ["CCCC/C=C1\\CCC(C)(CN(C)C)C1=O (configuration not stated)", "GI50", "46.5 µM (inactive)"],
  ["c1ccc2oc(-c3ccc(-c4nc5ccccc5o4)c4c3CC4)nc2c1", "GI50", "> 100 µM (inactive)"],
  ["CC12CC(=O)Nc3ccccc3N1C(c1ccccc1)=NO2 (configuration not stated)", "GI50", "> 100 µM (inactive)"],
  ["C=CCCC1CCCCNC1=S (configuration not stated)", "GI50", "> 10 µM (inactive)"],
  ["CCCCCN(CCCCC)C(=O)[C@H](CCC(=O)O)NC(=O)c1cc2ccccc2[nH]1", "GI50", "33.3 µM (inactive)"],
  ["COc1ccc(N2C(=O)C3C=CC(n4[nH]c(=O)n(Cc5ccccc5)c4=O)CC3C2=O)cc1 (configuration not stated)", "GI50", "> 100 µM (inactive)"],
  ["OC1COC(n2c3ccc(Br)cc3c3ccc4c5ccccc5[nH]c4c32)C(O)C1O (configuration not stated)", "GI50", "1.76 µM (inactive)"],
  ["CC12C=C[C@]3(CC[C@@H]4[C@@](C)(CO)CCC[C@]4(C)C3CC1)C2 (some centres not stated)", "GI50", "13.7 µM (inactive)"],
  ["CCCCCCCCCCCCCCCCOC(=O)c1cc(O)cc(C(=O)OCCCCCCCCCCCCCCCC)c1", "GI50", "> 100 µM (inactive)"],
  ["COc1ccc2c(C)cc(N/N=C/c3sccc3C)nc2c1", "GI50", "14.9 µM (inactive)"],
  ["NC(CCC(=O)c1ccccn1)C(=O)O (configuration not stated)", "GI50", "> 100 µM (inactive)"],
  ["CN(C)CCNC1=CC(=O)c2c(O)ccc(O)c2C1=O", "GI50", "14.2 µM (inactive)"]
]}
